Reference source for all entries: paper PMC12040169

Below, each entry is listed with its recorded viability at 28.5 h, 10 µM.
Test: in vitro
Details: human, hela cells, % viability
Just the number in %, nothing appended.

Examples from the recorded data:
{"columns": ["compound", "numeric_result"],
 "data": [
  ["Cn1c(=O)[nH]c2c(nc(-c3ccccc3)n2C)c1=O", 78.2],
  ["CN1CCN(CC(CC(=O)Nc2ccccc2)C(=O)O)CC1 (stereo not drawn)", 81.8],
  ["Nc1ncc(-c2ccco2)nc1NCc1ccco1", 91.8],
  ["Cc1nnc2c(N3CCNCC3)nc3ccccc3n12", 89],
  ["c1ccc(CCN2CCN(CCC(c3ccccc3)c3ccccc3)CC2)cc1", 85.4]
]}

### Prompt viability at 28.5 h, 10 µM lookup needed for `Cn1cncc1C(=O)NC1CCCC1` , thanks.
### Response 95.5

### Prompt viability at 28.5 h, 10 µM lookup needed for `c1coc(COc2cncc(N3CCNCC3)n2)c1` , thanks.
### Response 94.2
